Recorded measurements of MIC50, one per entry
- System: Nakaseomyces glabratus
- protocol: Antifungal activity against Candida glabrata PMC 0850R after 48 hrs by CLSI broth microdilution method
- Format: functional

O=C(OC(Cn1ccnc1)c1ccc(Cl)cc1)N1CCN(c2ccc(Cl)cc2)CC1 (stereo not given)	8 µg/mL
O=C(O[C@H](Cn1ccnc1)c1ccc(Cl)cc1)N1CCN(c2ccc(Cl)cc2)CC1	4 µg/mL
O=C(Nc1ccc(N2CCN(c3ccc(Cl)cc3)CC2)cc1)OC(Cn1ccnc1)c1ccc(F)cc1 (stereo not given)	1 µg/mL
OC(Cn1cncn1)(Cn1cncn1)c1ccc(F)cc1F	32 µg/mL

Could you now consider this next compound?
Exam item: Find the recorded MIC50 belonging to O=C(Nc1ccc(N2CCN(c3ccc(Cl)cc3)CC2)cc1)O[C@@H](Cn1ccnc1)c1ccc(F)cc1 and report it.
Marked response: 0.25 µg/mL

====

- System: Cryptococcus neoformans
- protocol: Antifungal activity against Cryptococcus neoformans PMC 2103 after 72 hrs by CLSI broth microdilution method
- Format: functional
- protocolConditions: PMC 2103, 72 h
Recorded measurements of MIC50, one per entry

Below, each entry is followed by its recorded MIC50 result.
O=C(OC(Cn1ccnc1)c1ccc(Cl)cc1)N1CCN(c2ccc(Cl)cc2)CC1 (centres undefined)	4 µg/mL
O=C(OC(Cn1ccnc1)c1ccc(Cl)cc1)N1CCN(C(=O)c2ccco2)CC1 (centres undefined)	128 µg/mL
O=C(Nc1ccc(N2CCN(c3ccc(Cl)cc3)CC2)cc1)O[C@H](Cn1ccnc1)c1ccc(F)cc1	1 µg/mL
O=C(O[C@H](Cn1ccnc1)c1ccc(Cl)cc1)N1CCN(c2ccc(Cl)cc2)CC1	4 µg/mL
CCS(=O)(=O)N1CCN(c2ccc(NC(=O)OC(Cn3ccnc3)c3ccc(F)cc3)cc2)CC1 (centres undefined)	16 µg/mL

Exam item: Find the recorded MIC50 belonging to O=C(OC(Cn1ccnc1)c1ccc(F)cc1)N1CCN(C(=O)c2ccco2)CC1 (centres undefined) and report it.
Marked response: 64 µg/mL

Exam item: Find the recorded MIC50 belonging to O=C(Nc1ccc(N2CCN(C(=O)c3ccco3)CC2)cc1)OC(Cn1ccnc1)c1ccc(F)cc1 (centres undefined) and report it.
Marked response: 1 µg/mL

Exam item: Find the recorded MIC50 belonging to O=C(O[C@@H](Cn1ccnc1)c1ccc(Cl)cc1)N1CCN(c2ccc(Cl)cc2)CC1 and report it.
Marked response: 2 µg/mL

Exam item: Find the recorded MIC50 belonging to O=C(Nc1ccc(N2CCN(c3ccc(Cl)cc3)CC2)cc1)O[C@@H](Cn1ccnc1)c1ccc(F)cc1 and report it.
Marked response: 0.06 µg/mL

Cited source: ChEMBL document CHEMBL3286116
